Source: patent US4031198A

Assay method text: Partition coefficient of Tc complexes, water/n-octyl alcohol, by radioactivity
Assay type: physicochemical
Recorded conditions: water/n-octanol, pH 8
Endpoint label: logD

[
  {
    "Smiles structure": "OCCCCCS",
    "Assay value": 0
  },
  {
    "Smiles structure": "CC(C)(O)CCS",
    "Assay value": 1.3
  }
]

###

Assay method text: Partition coefficient of Tc complexes, water/n-octyl alcohol, by radioactivity
Assay type: physicochemical
Recorded conditions: water/n-octanol, pH 6

[
  {
    "Molecule": "OCCCCCS [5-mercapto pentanol]",
    "logD": -0.1
  },
  {
    "Molecule": "CC(C)(O)CCS [4-mercapto-2-methyl-2-butanol]",
    "logD": 1.1
  }
]

###

Assay method text: Partition coefficient of Tc complexes, water/n-octyl alcohol, by radioactivity
Assay type: physicochemical
Recorded conditions: water/n-octanol, pH 5
Measured logD accompanies every entry in the list below.

[
  {
    "Smiles structure": "OCCCCCS",
    "logD": -0.2
  },
  {
    "Smiles structure": "CC(C)(O)CCS",
    "logD": 1
  }
]

###

Assay method text: Partition coefficient of Tc complexes, water/n-octyl alcohol, by radioactivity
Format: physicochemical
Recorded conditions: water/n-octanol, pH 7
Experimental: These partition coefficient studies involve plotting pH vs. The natural logarithm of the ratio of the activity in water to the activity in normal octyl alcohol, hereinafter referred to as ln(aw /ao). […] Partition coefficients for the Tc-DHT complex of this Example were determined with a water/n-octyl alcohol system over the pH range of 5 to 8 using radioactive measurements to determine the amount of Tc-99m in each phase. […]

[
  {
    "Compound": "CC(C)(O)CCS [4-mercapto-2-methyl-2-butanol]",
    "logD": 1.2
  },
  {
    "Compound": "OCCCCCS [5-mercapto pentanol]",
    "logD": -0.1
  }
]
